Data origin, for the record: patent US20220096649A1

# pKd per record follows
TESTED TARGET: T1, Human SIRPγ (human, UniProt Q9P1W8 29-147, limits assumed)
T1 construct: Soluble analyte in SPR
T1 sequence (Q9P1W8 29-147 limits assumed): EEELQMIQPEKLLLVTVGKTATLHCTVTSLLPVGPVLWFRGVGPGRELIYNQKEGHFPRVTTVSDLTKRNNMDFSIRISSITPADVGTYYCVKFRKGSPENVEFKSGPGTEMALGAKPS
EXPERIMENT SUMMARY: SPR, antibody on GLC chip, SIRP as analyte
Conceptually, pKd converts a concentration in mol/L into minus its log10.

Record excerpt, results attached:
[
  {
    "BINDER": "Anti-SIRP-α antibody 119, light chain Mut, heavy chain Mut_V34M (antibody, V domains shown, Whole antibody) VH: EVQLLESGGGVVQPGGSLRLSCAASGFSFSNFAMTWVRQAPGKGLEWVSTIGSGDTYYADSVKGRFTISRDNSKNTLYLQMNSLRAEDTAVYYCAKDSTVSWSGDFFDYWGQGTLVTVSS VL: EIVLTQSPATLSVSPGERATLSCRASQNVKNDLAWYQQKPGQAPRLLIYAARIRETGIPARFSGSGSGTEFTLTISSLQSEDFAVYYCQQYYDWPPFTFGGGTKVEIK",
    "RECORDED RESULT": 9.59
  },
  {
    "BINDER": "Anti-SIRP-α antibody 136, light chain wt, heavy chain Mut (antibody, V domains shown, Whole antibody; Heavy chain mut = D1E, R13Q, E16R, M34V, E43K, L111Q) VH: EVQLVESGGGVVQPGRSLRLSCAASGFTFSSYDVNWVRQAPGKGLEWVSLISGSGEIIYYADSVKGRFTISRDNSKNTLYLQMNSLRAEDTAVYYCAKENNRYRFFDDWGQGTLVTVSS VL: ETVLTQSPGTLTLSPGERATLTCRASQSVYTYLAWYQEKPGQAPRLLIYGASSRATGIPDRFSGSGSGTEFTLTISSLQSEDFAVYYCQQYYDRPPLTFGGGTKVEIK",
    "RECORDED RESULT": 7.77
  },
  {
    "BINDER": "Anti-SIRP-α antibody 119, light chain Mut, heavy chain wt (antibody, V domains shown, Whole antibody; Light chain mut = F21L, R39K, E60A, T76S) VH: EVQLLESGGGVVQPGGSLRLSCAASGFSFSNFAMTWVRQAPGEGLEWVSTIGSGDTYYADSVKGRFTISRDNSKNTLYLQMNSLRAEDTAVYYCAKDSTVSWSGDFFDYWGLGTLVTVSS VL: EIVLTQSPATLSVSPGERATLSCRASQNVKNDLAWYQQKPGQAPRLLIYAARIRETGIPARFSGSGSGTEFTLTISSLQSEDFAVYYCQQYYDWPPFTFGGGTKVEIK",
    "RECORDED RESULT": 9.64
  },
  {
    "BINDER": "Hum9/AB21_HC_Mutall (antibody, V domains shown, Whole antibody) VH: EVQLVESGGGVVQPGGSLRLSCAASGFTFSSNAMSWVRQAPGKGLEWVAGISAGGSDTYYPASVKGRFTISRDNSKNTLYLQMNSLRAEDTAVYYCARETWNHLFDYWGQGTLVTVSS VL: SYELTQPPSVSVSPGQTARITCSGGAYSSYYYAWYQQKPGQAPVLVIYSDDKRPSGIPERFSGSSSGTTVTLTISGVQAEDEADYYCGGYDQSSYTNPFGGGTKLTVL",
    "RECORDED RESULT": 10.46
  }
]

Prompt line: If you can, please state the reported pKd value of Anti-SIRP-α antibody 135, light chain wt, heavy chain Mut (antibody, V domains shown, Whole antibody; Heavy chain mut = D1E, R13Q, E16G, M34V, E43K, L112Q) VH: EVQLVESGGGVVQPGGSLRLSCAASGFSFSIYAVSWVRQAPGKGLEWVSTIGADDTYYADSVKGRFTISRDNSKNTLYLQMNSLRAEDTAVYYCAKDSTVGWSGDFFDYWGQGTLVTVSS VL: EIVLTQSPATLSVSPGERVTFSCRASQNVRSDIAWYQQKPGQAPRLLIYAASSRDTGIPDRFSGSGSGTDFTLTISSLQSEDFGVYYCQQYYDWPPFTFGGGTKVEIK .
Response line: 9.11
